Values were extracted from the kinase profiling compilation of Christmann-Franck et al. (2016).

- test system: UniProtKB P12931
- assay overview: radiometric filter-binding kinase assay, Kinase HotSpot
- condition label: compound 0.5 µM; ATP 10 µM
measured metric: residual activity (%)
Report as a plain number; the unit % is understood.

                                item_smiles    measured_metric  assay_result
0  O=C1Nc2ccc(Br)cc2/C1=C\c1cc2c([nH]1)CCCC2  residual activity          88.8

For the compound shown here, `O=C1c2ccccc2-c2nc3nnnn3nc21` , give the reported residual activity.
80.4

For the compound shown here, `CN(C)c1ccc(/C=C2\C(=O)Nc3ccccc32)cc1` , give the reported residual activity.
102

For the compound shown here, `CS(=O)(=O)CCNCc1ccc(-c2ccc3ncnc(Nc4ccc(OCc5cccc(F)c5)c(Cl)c4)c3c2)o1` , give the reported residual activity.
102

For the compound shown here, `O=C(c1cc2cc(O)ccc2[nH]1)c1cc2cc(O)ccc2[nH]1` , give the reported residual activity.
36.4

For the compound shown here, `NC(=O)c1cccc(-c2cc(Nc3ccc(OC(F)(F)F)cc3)ncn2)c1` , give the reported residual activity.
97

====

- test system: SRC (human) (UniProt P12931)
- Sequence (P12931 whole entry, looked up): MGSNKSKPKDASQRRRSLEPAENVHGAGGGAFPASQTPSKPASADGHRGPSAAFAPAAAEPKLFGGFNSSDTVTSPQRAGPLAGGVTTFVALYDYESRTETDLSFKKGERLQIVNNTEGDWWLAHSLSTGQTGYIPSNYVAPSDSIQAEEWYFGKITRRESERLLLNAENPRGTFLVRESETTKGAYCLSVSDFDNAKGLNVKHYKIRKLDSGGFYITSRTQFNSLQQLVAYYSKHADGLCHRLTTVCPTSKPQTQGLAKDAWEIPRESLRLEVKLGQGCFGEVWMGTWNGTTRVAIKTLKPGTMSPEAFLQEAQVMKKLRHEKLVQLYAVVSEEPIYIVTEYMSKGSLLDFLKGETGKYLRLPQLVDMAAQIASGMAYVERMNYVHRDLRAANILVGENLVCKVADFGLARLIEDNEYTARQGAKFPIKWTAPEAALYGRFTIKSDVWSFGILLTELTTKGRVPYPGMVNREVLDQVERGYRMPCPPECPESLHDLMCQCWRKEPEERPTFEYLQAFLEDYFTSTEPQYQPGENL
- assay overview: radiometric filter-binding kinase assay, Kinase HotSpot
- condition label: compound 0.5 µM; ATP 10 µM
This section presents molecules with their documented residual activity values.
Report as a plain number; the unit % is understood.

Please review the entries below; each comes with its answer.
In [3]: df
Out[3]:
                                item_smiles  assay_result
0            Cc1nc(-c2ccccc2)c(-c2ccncc2)o1          96.2
1  Cc1cncc2cccc(S(=O)(=O)N3CCCN(C(=O)CN)C[C@H]3C)c12          93.6
2       Fc1ccc(-c2nc3n(c2-c2ccncc2)CCS3)cc1          98.2
3  Cc1cccc(-c2nc(C(C)(C)C)[nH]c2-c2ccc3c(c2)OCO3)n1            96
4   N#C/C(=C\c1ccc(O)c(O)c1)C(=O)NCc1ccccc1          94.8
5        CC(C)(C)c1cc(C=C(C#N)C#N)cc(Br)c1O          87.4
6  COc1ccc2c(c1)c(C1=C(c3c[nH]c4ccccc34)C(=O)NC1=O)cn2CCCN(C)C          79.8
7       CCCCc1c(-c2ccc(OC)cc2)[nH]c2nccnc12          58.8

GET /values?readout=residual activity&system=SRC (human) (UniProt P12931)&item= `c1ccc2c(-c3ccncc3)c[nH]c2c1`
100

GET /values?readout=residual activity&system=SRC (human) (UniProt P12931)&item= `CN(C)CCCn1cc(C2=C(c3c[nH]c4ccccc34)C(=O)NC2=O)c2ccccc21`
92.6

GET /values?readout=residual activity&system=SRC (human) (UniProt P12931)&item= `COc1cc2ncnc(Nc3ccc(OCc4ccccc4)cc3)c2cc1OC`
102

====

- test system: UniProt P32298
- Sequence (P32298 whole entry, looked up): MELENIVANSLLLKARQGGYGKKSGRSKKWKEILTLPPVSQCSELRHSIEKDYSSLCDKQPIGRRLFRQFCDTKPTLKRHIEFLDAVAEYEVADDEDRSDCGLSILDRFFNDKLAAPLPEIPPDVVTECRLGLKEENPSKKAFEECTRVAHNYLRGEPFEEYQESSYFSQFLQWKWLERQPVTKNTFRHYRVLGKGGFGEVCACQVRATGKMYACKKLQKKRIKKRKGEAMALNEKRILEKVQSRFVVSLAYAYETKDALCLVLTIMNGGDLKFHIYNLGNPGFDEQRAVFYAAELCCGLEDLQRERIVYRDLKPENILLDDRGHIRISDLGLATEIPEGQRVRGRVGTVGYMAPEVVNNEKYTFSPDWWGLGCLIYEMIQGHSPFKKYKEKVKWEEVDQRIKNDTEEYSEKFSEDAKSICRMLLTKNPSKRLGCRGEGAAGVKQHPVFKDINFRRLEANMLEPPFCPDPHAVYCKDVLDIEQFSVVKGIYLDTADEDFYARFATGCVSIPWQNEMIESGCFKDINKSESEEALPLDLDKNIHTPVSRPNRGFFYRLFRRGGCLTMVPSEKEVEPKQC
- assay overview: radiometric filter-binding kinase assay, Kinase HotSpot
- condition label: compound 0.5 µM; ATP 10 µM
measured metric: residual activity

GET /values?readout=residual activity&system=UniProt P32298&item= `COc1ccc(Cl)cc1NC(=O)Nc1cc(C)nc2ccccc12`
105%

GET /values?readout=residual activity&system=UniProt P32298&item= `COc1ccc(S(=O)(=O)N(CCO)c2ccccc2CN(C)C/C=C/c2ccc(Cl)cc2)cc1`
94%

GET /values?readout=residual activity&system=UniProt P32298&item= `CCCCc1c(-c2ccc(OC)cc2)[nH]c2nccnc12`
96.7%

GET /values?readout=residual activity&system=UniProt P32298&item= `COc1cc2ncnc(Nc3ccc(Oc4ccccc4)cc3)c2cc1OC`
97.1%

GET /values?readout=residual activity&system=UniProt P32298&item= `Cc1nc(-c2ccccc2)c(-c2ccncc2)o1`
94.3%

GET /values?readout=residual activity&system=UniProt P32298&item= `c1ccc2c(-c3ccncc3)c[nH]c2c1`
94.9%

GET /values?readout=residual activity&system=UniProt P32298&item= `N#C/C(=C\c1ccc(O)c(O)c1)C(=O)NCc1ccccc1`
101%

GET /values?readout=residual activity&system=UniProt P32298&item= `COc1ccc2c(c1)c(C1=C(c3c[nH]c4ccccc34)C(=O)NC1=O)cn2CCCN(C)C`
92.8%

GET /values?readout=residual activity&system=UniProt P32298&item= `CS(=O)(=O)CCNCc1ccc(-c2ccc3ncnc(Nc4ccc(OCc5cccc(F)c5)c(Cl)c4)c3c2)o1`
90.3%

GET /values?readout=residual activity&system=UniProt P32298&item= `N#Cc1c[nH]c2c[nH]/c(=N\Cc3cccnc3)cc2/c1=N\c1ccc(F)c(Cl)c1`
98.8%
